Test system: Bladder carcinoma 5637 cells
Assay: Cytotoxicity counterscreen, CellTiter Glo, 72 hr
Type: cell-based, human
Items are presented alongside their recorded pIC50.
# pIC50: negative log10 of molar concentration; output just the value

## Task Reported pIC50, molecule O=C(O)c1sc(-c2ccccc2)cc1NC(=O)C1CCCC1 : ____
## Result 3.77

## Task Item Cc1ccc(-c2cc(NC(=O)c3c(F)cccc3F)c(C(=O)O)s2)cc1 has what recorded pIC50?
## Result 4.24

## Task Requested read-out: pIC50. Entry: CCCOc1ccc(-c2cc(NC(=O)c3c(F)cc(F)cc3F)c(C(=O)O)s2)cc1
## Result 4.07

## Task # lookup: pIC50 of Cc1c(C(=O)Nc2cc(-c3ccccc3)sc2C(=O)O)oc2ccccc12
## Result 4.31

## Task Report pIC50 for CC(C)c1ccc(-c2cc(NC(=O)c3ccc(Br)s3)c(C(=O)O)s2)cc1 please.
## Result 4.48

## Task Field request: pIC50 | item: O=C(Nc1cc(-c2ccccc2)sc1C(=O)O)c1cccc(Cl)c1
## Result 4.36

## Task Query: pIC50; subject: O=C(Nc1cc(-c2ccc(OCCC(F)(F)F)cc2)sc1C(=O)O)c1ccc(Br)o1 [compound 56643022]
## Result 4.38

## Task Which pIC50 value is on record for CCCc1ccc(-c2cc(NC(=O)c3ccc(Br)o3)c(C(=O)O)s2)cc1 ?
## Result 4.33
